The reported measurements were obtained from paper PMC10515640.

Target: 14-3-3σ/C-RAF (Homo sapiens)
Construct: The 14-3-3 σ isoform (full-length for mass spectrometry and fluorescence anisotropy assays, ΔC for crystallography); made in house; host or cells: E. coli Rosetta 2(DE3)pLysS, pPROEX HTb vector
Sequence (P31947 whole entry, canonical isoform): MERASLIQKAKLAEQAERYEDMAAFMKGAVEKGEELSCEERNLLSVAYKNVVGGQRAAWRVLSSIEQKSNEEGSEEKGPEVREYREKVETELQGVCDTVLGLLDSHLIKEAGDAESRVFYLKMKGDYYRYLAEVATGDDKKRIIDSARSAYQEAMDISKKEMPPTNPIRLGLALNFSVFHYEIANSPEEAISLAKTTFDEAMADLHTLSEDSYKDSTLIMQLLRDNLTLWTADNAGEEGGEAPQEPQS
Experiment: Mass spectrometry dose response, compound binding to 14-3-3σ in the presence of C-RAF phosphopeptide
Details: 100 nM compound, 100 nM 14-3-3σ, C-RAF peptide 18 µM, head prints 24h
Excerpt: Two orthogonal assays were developed for screening. For the primary assay, mass spectrometry (MS) was used to monitor the formation of the covalent bond between the compound and the native cysteine (Cys38 on 14-3-3σ) (Figure 1D). […] As a secondary assay, fluorescence anisotropy (FA) was used. […]
readout_name: Percentage (%) bound of compound to 14-3-3σ, CRAF 24h
Please give a number only; it is taken to be in %.

Answered examples (3):
[
  {
    "compound": "O=C(CCl)NCC1CC2(CCN(C(=O)C3(Nc4ccc(Cl)cc4)CCOCC3)CC2)C1 [compound 174]",
    "target": "14-3-3σ/C-RAF (Homo sapiens)",
    "unit_string": "%",
    "result": 1.6
  },
  {
    "compound": "O=C(CCl)NCC1CCN(C(=O)C2(Nc3ccc(Cl)cc3)CC2)CC1 [compound 97]",
    "target": "14-3-3σ/C-RAF (Homo sapiens)",
    "unit_string": "%",
    "result": 5.1
  },
  {
    "compound": "O=C(CCl)NCC1CCN(C(=O)C2(Oc3ccc(Cl)cc3)CCC(F)(F)CC2)CC1 [compound 124]",
    "target": "14-3-3σ/C-RAF (Homo sapiens)",
    "unit_string": "%",
    "result": 9.1
  }
]

Next compound, Percentage (%) bound of compound to 14-3-3σ, CRAF 24h to be filled in.
Input line: Returns the measured Percentage (%) bound of compound to 14-3-3σ, CRAF 24h for the input compound. Input: CC(C)(Oc1ccc(Cl)cc1)C(=O)N1CCC(CCC(=O)CCl)CC1 [compound 37]
Output line: 99.9
